- ASSAYED_SYSTEM: esterase
- ASSAY_REMARKS: Esterase inhibiting activity
- MEASUREMENT_SETUP: rat liver microsome esterase, methyl butyrate substrate, pH 8.0, 37° C., 60 minutes; read-out: IC50 for esterases
REPORTED_PROPERTY: IC50 (µM)
One number for each entry, in µM.

# annotated cases, reported IC50 shown
1. CCCC(=O)COS(=O)(=O)c1cc(C)c(C)cc1C [Compound 116] : 1.3
2. CCOc1ccc(S(=O)(=O)OCC(=O)CCCC(C)C)cc1 [Compound 145] : 3.3
3. Cc1ccc(S(=O)(=O)OCC(=O)CC2CCCCC2)cc1 [Compound 166] : 3.5

Please give IC50, item by item, for the list that follows.
1. CCOc1ccc(S(=O)(=O)OCC(=O)CCC(C)C)cc1 [Compound 138]
2. CCCCCCC(=O)COS(=O)(=O)c1ccccc1C [Compound 31]
3. CCOc1ccc(S(=O)(=O)OCC(=O)CC(CC)CC)cc1 [Compound 137]
4. CCCC(=O)COS(=O)(=O)c1cc(C)ccc1C [Compound 111]
5. CCCCCCCCC(=O)COS(=O)(=O)c1c(C)cc(C)c(C)c1C [Compound 98]
6. CCCCC(CCCC)C(=O)COS(=O)(=O)c1ccc(C)cc1 [Compound 129]
7. Cc1ccc(S(=O)(=O)OCC(=O)CCCCCCC(C)C)cc1 [Compound 27]
8. CCCCC(=O)COS(=O)(=O)c1c(C)cc(C)c(C)c1C [Compound 96]

4.2
0.017
10
0.28
2.7e-05
7
0.67
0.00016

Please give IC50, item by item, for the list that follows.
1. CCCC(CC)C(=O)COS(=O)(=O)c1c(C)cc(C)cc1C (stereo not shown) [Compound 151]
2. Cc1cc(C)c(S(=O)(=O)OCC(=O)C2CCOCC2)c(C)c1 [Compound 186]
3. CCCCCC(C)C(=O)COS(=O)(=O)c1ccc(C)cc1 (stereo not shown) [Compound 130]
4. CCCCCCCCC(=O)COS(=O)(=O)c1c(C)cc(C)cc1C [Compound 78]
5. O=C(COS(=O)(=O)c1ccc(Cl)cc1)C1CCCCC1 [Compound 179]

32
32
4
0.00063
1.5

# credit: patent US4489091A
